Data origin, for the record: patent US20240190999A1

- Assayed system: T1, human fibroblast activation protein (hFAP) (human, UniProt Q12884 26-760, limits assumed)
- T1 construct: Recombinant soluble protein; also called human FAP; rhFAP
- T1 sequence (Q12884 26-760 limits assumed): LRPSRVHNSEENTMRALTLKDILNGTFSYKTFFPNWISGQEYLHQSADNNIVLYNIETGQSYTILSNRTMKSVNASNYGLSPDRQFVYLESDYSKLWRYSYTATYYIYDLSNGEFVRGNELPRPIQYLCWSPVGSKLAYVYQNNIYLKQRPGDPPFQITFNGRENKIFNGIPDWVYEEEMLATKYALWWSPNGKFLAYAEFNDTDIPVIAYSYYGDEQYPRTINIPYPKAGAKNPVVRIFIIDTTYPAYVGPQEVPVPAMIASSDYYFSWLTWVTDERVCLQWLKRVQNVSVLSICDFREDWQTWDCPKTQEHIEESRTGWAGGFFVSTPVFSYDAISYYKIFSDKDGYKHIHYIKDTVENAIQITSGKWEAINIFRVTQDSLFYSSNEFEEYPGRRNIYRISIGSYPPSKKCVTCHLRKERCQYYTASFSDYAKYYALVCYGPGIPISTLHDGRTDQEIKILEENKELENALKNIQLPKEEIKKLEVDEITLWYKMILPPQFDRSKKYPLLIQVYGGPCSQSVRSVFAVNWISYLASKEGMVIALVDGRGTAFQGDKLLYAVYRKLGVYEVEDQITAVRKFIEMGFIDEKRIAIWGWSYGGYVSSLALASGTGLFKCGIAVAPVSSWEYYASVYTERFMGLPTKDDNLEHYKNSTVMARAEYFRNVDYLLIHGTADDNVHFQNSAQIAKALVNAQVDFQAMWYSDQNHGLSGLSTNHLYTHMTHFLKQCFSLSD
- Test details: SPR (ProteOn XPR36), hFAP immobilised on GLC chip, construct as analyte
Exercise: for every item that follows, state its recorded pKd.
Numbers only, as −log10 of the molar value.

Binder	pKd
bispecific construct #46 (designed binder, 56 is used; also called FAP-4-1BB bispecific construct #46) MRGSHHHHHHGSDLGEKLLVAALYGQDDEVRILLAAGADVNAKDQWGLTPLHKAALQGHLEIVEVLLKAGADVNAKDERGHTPLHWAARFGHLEIVEVLLKAGADVNAQDQKGYTPADLAALWGHEDIAEVLQKAAGSPTPTPTTPTPTPTTPTPTPTGSDLGRKLLQAAQLGQDDEVRELLKAGADVNAKDSRGITPLHVAAWQGHLEIVEVLLKASADVNAKDHAGITPLHLAAFLGHLEIVEVLLKAGADVNAQDQEGRTPADLAALQGHEDIAKVLQKLN	9.57
bispecific construct #49 (designed binder, 56 is used; also called FAP-4-1BB bispecific construct #49) MRGSHHHHHHGSDLGEKLLVAALYGQDDEVRILLAAGADVNAKDQWGLTPLHKAALQGHLEIVEVLLKAGADVNAKDERGHTPLHWAARFGHLEIVEVLLKAGADVNAQDQKGYTPADLAALWGHEDIAEVLQKAAGSPTPTPTTPTPTPTTPTPTPTGSDLGKKLLVAANVGQDDEVRILLAAGADVNAKDYHGYTPLHHAATYGHLEIVEVLLKAGADVNAKDQTGLTPLHLAAAKGHLEIVEVLLKAGADVNAQDHHGYTPADLAAFVGHEDIAVVLQKLN	9.77
bispecific construct #45 (designed binder, 56 is used; also called FAP-4-1BB bispecific construct #45) MRGSHHHHHHGSDLGEKLLVAALYGQDDEVRILLAAGADVNAKDQWGLTPLHKAALQGHLEIVEVLLKAGADVNAKDERGHTPLHWAARFGHLEIVEVLLKAGADVNAQDQKGYTPADLAALWGHEDIAEVLQKAAGSPTPTPTTPTPTPTTPTPTPTGSDLGDKLLHAAYYGQDDEVRILLAAGADVNAKDTQGLTPLHLAAAIGHLEIVEVLLKAGADVNAKDAYGETPLHLVASRGHLEIVEVLLKAGADVNAQDYSGRTPADLAAEYGHEDIAEVLQKLN	9.48

Hi team, please reply with pKd for each item in this list.
1. bispecific construct #44 (designed binder, also called FAP-4-1BB bispecific construct #44) MRGSHHHHHHGSDLGEKLLVAALYGQDDEVRILLAAGADVNAKDQWGLTPLHKAALQGHLEIVEVLLKAGADVNAKDERGHTPLHWAARFGHLEIVEVLLKAGADVNAQDQKGYTPADLAALWGHEDIAEVLQKAAGSPTPTPTTPTPTPTTPTPTPTGSDLGQKLLKAAQEGQDDEVRELLKAGADVNAKDLRGITPLHVAAWQGHLEIVEVLLKAGADVNAKDSKGETPLHLAAFRGHLEIVEVLLKAGADVNAQDQQGETPADLAALAGHVDIAEVLQKLN
2. bispecific construct #47 (designed binder, 56 is used; also called FAP-4-1BB bispecific construct #47) MRGSHHHHHHGSDLGEKLLVAALYGQDDEVRILLAAGADVNAKDQWGLTPLHKAALQGHLEIVEVLLKAGADVNAKDERGHTPLHWAARFGHLEIVEVLLKAGADVNAQDQKGYTPADLAALWGHEDIAEVLQKAAGSPTPTPTTPTPTPTTPTPTPTGSDLGKKLLEAARAGQDDEVRELLKAGADVNAKDTYGETPLHLAAWKGHLEIVEVLLKAGADVNAKDSIGITPLHVAAHHGHLEIVEVLLKAGADVNAKDKWGRTPLHLAALLGHLEIAEVLLKAGADVNAQDKSGKTPADLAADAGHDDIAEVLQKLN

[9.44, 10.15]
